# System: Wnt activity (Sp5-Luc reporter, SW480 colon carcinoma cells)
# PROCEDURE DETAILS: Screening assay for Wnt activity: Sp5-Luc reporter gene assay in SW480 cells
# Assay type: cell-based
# RUN PARAMETERS: Homo sapiens; SW480 Sp5-Luc reporter, overnight incubation
READOUT LABEL: EC50 (nM)

Worked examples follow.
> print(dat)
                                   molecule  value.observed
1  O=C(Nc1cncc(-c2ccc3[nH]nc(-c4cc5c(-c6cccc(F)c6)cncc5[nH]4)c3c2)c1)C1CCCCC1 [Compound 23]             620
2  c1ccc(CNCc2cncc(-c3ccc4[nH]nc(-c5cc6c(-c7cccs7)cncc6[nH]5)c4c3)c2)cc1 [Compound 360]             578
3  Cc1ccncc1-c1ccc2[nH]nc(-c3cc4ccncc4[nH]3)c2c1 [Compound 257]             191

(a) Cc1ncc(-c2ccc3[nH]nc(-c4cc5c(-c6ccncc6)cncc5[nH]4)c3c2)n1C [Compound 573]
(b) Fc1cccc(-c2cncc3[nH]c(-c4n[nH]c5ccc(-c6ccccn6)cc45)cc23)c1 [Compound 28]
Inquiry: Which value of EC50 is smaller, the one for a or the one for b ? Return value: the label identifying the chosen record.
Reply text: b

###

# Test system: Primary human fibroblasts derived from IPF patients (LL29 cells)
# PROCEDURE DETAILS: Inhibition of the fibrotic process: αSMA staining in TGF-β1-treated LL29 fibroblasts
# Format: cell-based
# RUN PARAMETERS: Fibroblast, 96 h, LL29 cells, TGF-β1 20 ng/mL, 4 days, % αSMA-positive cells
# Source text: Representative compounds were screened using primary human fibroblasts (derived from IFF patients) treated with TGF-β1 to determine their ability to inhibit the fibrotic process. […]
READOUT LABEL: EC50 (nM)
Use nM as the unit, but write only the number.

Inquiry: Query: EC50; subject: CN1CCN(c2cncc3[nH]c(-c4n[nH]c5ccc(-c6cncc(CNCc7ccccc7)c6)cc45)cc23)CC1 [Compound 248]
Reply text: 1160

Inquiry: Next entry: c1cc(-c2ccc3[nH]nc(-c4cc5c(-c6ccsc6)cncc5[nH]4)c3c2)ccn1 [Compound 298]
Reply text: 716

Inquiry: Next entry: CN(C)Cc1cncc(-c2ccc3[nH]nc(-c4cc5c(-c6ccc(F)cc6)cncc5[nH]4)c3c2)c1 [Compound 41]
Reply text: 1190

###

# Test system: Primary human fibroblasts derived from IPF patients (LL29 cells)
# PROCEDURE DETAILS: Inhibition of the fibrotic process: αSMA staining in TGF-β1-treated LL29 fibroblasts
# Format: cell-based
# RUN PARAMETERS: Fibroblast, 96 h, LL29 cells, TGF-β1 20 ng/mL, 4 days, % αSMA-positive cells
pEC50: −log10 of the molar value.
# reported pEC50; entries follow

> print(dat)
                                smiles.repr  value.observed
1  c1cncc(-c2cncc3[nH]c(-c4n[nH]c5ccc(-c6cncnc6)cc45)cc23)c1          < 5.00
2  O=C(Nc1cncc(-c2ccc3[nH]nc(-c4cc5c(-c6cccnc6)cncc5[nH]4)c3c2)c1)c1ccccc1          < 5.00

Please turn your attention to the following entry.
Inquiry: Query: pEC50; subject: "CCNCc1cncc(-c2ccc3[nH]nc(-c4cc5c(-c6cc(F)cc(CNS(C)(=O)=O)c6)cncc5[nH]4)c3c2)c1"
Reply text: < 5.00
